MEASUREMENT PROTOCOL: inhibitors of TNFa-induced NFkB p65 translocation, primary screen, imaging, HUVEC, MLSMR starter and 10KST1 sets (AID 438);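 also: compound added about 3h40 before a 20 min TNFalpha stimulation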
SETUP CONDITIONS: HUVEC TNFa-induced p65 nuclear translocation; measured here: nuclei count (cytotoxicity indicator), at 2.08 µM
Response field class: string, computed from recorded cell count by ranges class A = under 400, class B = from 400 up to 600, class C = 600 and over

Answered cases to consult:
- COMPOUND: "Nn1cnnc1SCC(=O)Nc1ccc2c(c1)OCCO2"
  GROUP LABEL: "class B"
- COMPOUND: "O=C(NCN1CCCCC1)c1cccnc1"
  GROUP LABEL: "class A"

Exam item: Where would `CCN(CC)S(=O)(=O)c1ccc2oc(SCc3ccc(F)cc3)nc2c1` land among the classes by reported cell count?
Marked response: class C

Exam item: Band assignment needed for `O=C(OCc1nnc(-c2ccc(Cl)cc2)o1)c1ccc(=O)n(Cc2ccccc2)n1` please.
Marked response: class B
